# System: Escherichia coli
# test.name: Antimicrobial activity against Escherichia coli RCMB 010052 assessed as inhibition zone at 5 mg/ml after 24 hrs
# Assay type: functional
# condition.parameters: RCMB 010052, 24 h, read-out: IZ
property.measured: zone of inhibition at 5000 µg/mL (mm)
Respond with the bare value in mm.

// below: answered compounds
mol.smiles: Cc1noc(NS(=O)(=O)c2ccc(-n3c(S)c(C#N)c(-c4ccc(Cl)cc4)c(C#N)c3=O)cc2)c1C
target.system: Escherichia coli
test.value: 20.6

mol.smiles: Cc1noc(NS(=O)(=O)c2ccc(NC(=O)/C(C#N)=C/c3ccc(Cl)cc3)cc2)c1C
target.system: Escherichia coli
test.value: 22.1

mol.smiles: Cc1cc(C)n(-c2ccc(S(=O)(=O)Nc3onc(C)c3C)cc2)c(=O)c1C#N
target.system: Escherichia coli
test.value: 20.9

mol.smiles: Cc1noc(NS(=O)(=O)c2ccc(NC(=O)/C(C#N)=C/N(C)C)cc2)c1C
target.system: Escherichia coli
test.value: 16.3

Which value of zone of inhibition at 5000 µg/mL has been reported for CC(=O)OC[C@H]1O[C@@H](Sc2c(C#N)c(-c3ccc(Cl)cc3)c(C#N)c(=O)n2-c2ccc(S(=O)(=O)Nc3onc(C)c3C)cc2)[C@H](OC(C)=O)[C@@H](OC(C)=O)[C@@H]1OC(C)=O in the records?
23.2

* * *

Reported MIC values are given for each entry in this list.
# Tested on: Streptococcus pneumoniae
# test.name: Antimicrobial activity against Streptococcus pneumoniae RCMB 010010 assessed as absence of turbidity after 24 hrs
# Assay type: functional
# condition.parameters: RCMB 010010, 24 h
Give just the numeric value; µg/mL need not be written.

Below are worked cases with known answers.
mol.smiles: Cc1noc(NS(=O)(=O)c2ccc(NC(=O)/C(C#N)=C/c3ccccc3)cc2)c1C
target.system: Streptococcus pneumoniae
MIC (µg/mL): 7.81
//
mol.smiles: Cc1noc(NS(=O)(=O)c2ccc(NC(=O)/C(C#N)=N/Nc3ccccc3)cc2)c1C
target.system: Streptococcus pneumoniae
MIC (µg/mL): 62.5
//
mol.smiles: Cc1noc(NS(=O)(=O)c2ccc(-n3c(S)c(C#N)c(-c4cccnc4)c(C#N)c3=O)cc2)c1C
target.system: Streptococcus pneumoniae
MIC (µg/mL): 0.98
//
mol.smiles: CC(=O)c1sc(NC23CC4CC(CC(C4)C2)C3)c(C(=O)Nc2ccc(S(=O)(=O)Nc3onc(C)c3C)cc2)c1N
target.system: Streptococcus pneumoniae
MIC (µg/mL): 0.98
//
mol.smiles: Cc1noc(NS(=O)(=O)c2ccc(NC(=O)/C(C#N)=C/c3ccc(Cl)cc3)cc2)c1C
target.system: Streptococcus pneumoniae
MIC (µg/mL): 0.98

Which MIC value belongs to CCOc1ccc(-n2nc(C(=O)Nc3ccc(S(=O)(=O)Nc4onc(C)c4C)cc3)c(N)c2C#N)cc1 ?
1.95

Lookup COc1ccc(-c2[nH]nc(N)c2C(=O)Nc2ccc(S(=O)(=O)Nc3onc(C)c3C)cc2)cc1
0.49

* * *

Entries annotated with measured MIC
# Test system: Streptococcus pneumoniae
# test.name: Antimicrobial activity against Streptococcus pneumoniae RCMB 010010 assessed as absence of turbidity after 24 hrs
# Format: functional
# condition.parameters: RCMB 010010, 24 h

Example results:
mol.smiles: CC(=O)OC[C@H]1O[C@@H](Sc2c(C#N)c(-c3ccc(Cl)cc3)c(C#N)c(=O)n2-c2ccc(S(=O)(=O)Nc3onc(C)c3C)cc2)[C@H](OC(C)=O)[C@@H](OC(C)=O)[C@@H]1OC(C)=O
property.measured: MIC
test.value: 0.06 µg/mL
//
mol.smiles: Cc1noc(NS(=O)(=O)c2ccc(-n3c(S)c(C#N)c(-c4ccc(Cl)cc4)c(C#N)c3=O)cc2)c1C
property.measured: MIC
test.value: 0.49 µg/mL
//
mol.smiles: Cc1cc(C)n(-c2ccc(S(=O)(=O)Nc3onc(C)c3C)cc2)c(=O)c1C#N
property.measured: MIC
test.value: 0.12 µg/mL

I have this molecule here, COc1ccc(N/N=C(\C#N)C(=O)Nc2ccc(S(=O)(=O)Nc3onc(C)c3C)cc2)cc1 , and I need its recorded MIC.
15.6 µg/mL

And then Cc1noc(NS(=O)(=O)c2ccc(-n3c(S)c(C#N)c(-c4ccco4)c(C#N)c3=O)cc2)c1C , what is it?
0.24 µg/mL

Then C=CCNc1sc(C(C)=O)c(N)c1C(=O)Nc1ccc(S(=O)(=O)Nc2onc(C)c2C)cc1 ?
0.98 µg/mL

Same again, this time with CNc1sc(C(C)=O)c(N)c1C(=O)Nc1ccc(S(=O)(=O)Nc2onc(C)c2C)cc1
16.6 µg/mL

Cool, now Cc1noc(NS(=O)(=O)c2ccc(NC(=O)/C(C#N)=C/c3ccco3)cc2)c1C
15.6 µg/mL

* * *

# System: Escherichia coli
# test.name: Antimicrobial activity against Escherichia coli RCMB 010052 assessed as inhibition zone at 5 mg/ml after 24 hrs
# Format: functional
# condition.parameters: RCMB 010052, 24 h, read-out: IZ
property.measured: zone of inhibition at 5000 µg/mL (mm)
Reply numerically in mm, unit not repeated.

mol.smiles: COc1ccc(N/N=C(\C#N)C(=O)Nc2ccc(S(=O)(=O)Nc3onc(C)c3C)cc2)cc1
zone of inhibition at 5000 µg/mL, mm: 15.9
--
mol.smiles: Cc1noc(NS(=O)(=O)c2ccc(N)cc2)c1C
zone of inhibition at 5000 µg/mL, mm: 15.2
--
mol.smiles: Cc1noc(NS(=O)(=O)c2ccc(NC(=O)/C(C#N)=C/c3ccco3)cc2)c1C
zone of inhibition at 5000 µg/mL, mm: 14.9
--
mol.smiles: Cc1noc(NS(=O)(=O)c2ccc(NC(=O)/C(C#N)=N/Nc3ccccc3)cc2)c1C
zone of inhibition at 5000 µg/mL, mm: 13.5

Which zone of inhibition at 5000 µg/mL reading was recorded for the compound COc1ccc(-c2c(C#N)c(N)n(-c3ccc(S(=O)(=O)Nc4onc(C)c4C)cc3)c(=O)c2C#N)cc1 ?
16.2

How about this compound: CCOc1ccc(N/N=C(\C#N)C(=O)Nc2ccc(S(=O)(=O)Nc3onc(C)c3C)cc2)cc1
15.9

Lookup Cc1noc(NS(=O)(=O)c2ccc(-n3c(S)c(C#N)c(-c4cccnc4)c(C#N)c3=O)cc2)c1C
19.2

Please give the result for COc1ccc(-c2c(C#N)c(S)n(-c3ccc(S(=O)(=O)Nc4onc(C)c4C)cc3)c(=O)c2C#N)cc1 too.
20.6

Could you do the same for CNc1sc(C(C)=O)c(N)c1C(=O)Nc1ccc(S(=O)(=O)Nc2onc(C)c2C)cc1 , please?
17.1

* * *

# Tested on: Escherichia coli
# test.name: Antimicrobial activity against Escherichia coli RCMB 010052 assessed as absence of turbidity after 24 hrs
# Format: functional
# condition.parameters: RCMB 010052, 24 h
property.measured: MIC (µg/mL)
# unit: µg/mL | format: bare number

mol.smiles: Cc1noc(NS(=O)(=O)c2ccc(NC(=O)/C(C#N)=C/c3ccccc3)cc2)c1C
MIC [µg/mL]: 1.95
//
mol.smiles: Cc1noc(NS(=O)(=O)c2ccc(NC(=O)/C(C#N)=C/c3ccco3)cc2)c1C
MIC [µg/mL]: 0.12
//
mol.smiles: COc1ccc(N/N=C(\C#N)C(=O)Nc2ccc(S(=O)(=O)Nc3onc(C)c3C)cc2)cc1
MIC [µg/mL]: 31.2
//
mol.smiles: COc1ccc(-c2c(C#N)c(N)n(-c3ccc(S(=O)(=O)Nc4onc(C)c4C)cc3)c(=O)c2C#N)cc1
MIC [µg/mL]: 31.2
//
mol.smiles: Cc1noc(NS(=O)(=O)c2ccc(NC(=O)c3c(Nc4ccccc4)sc(C#N)c3N)cc2)c1C
MIC [µg/mL]: 500
//
mol.smiles: Cc1noc(NS(=O)(=O)c2ccc(NC(=O)c3cn[nH]c3N)cc2)c1C
MIC [µg/mL]: 125
//
mol.smiles: CNc1sc(C(C)=O)c(N)c1C(=O)Nc1ccc(S(=O)(=O)Nc2onc(C)c2C)cc1
MIC [µg/mL]: 15.6
//
mol.smiles: Cc1noc(NS(=O)(=O)c2ccc(NC(=O)/C(C#N)=C/c3ccc(Cl)cc3)cc2)c1C
MIC [µg/mL]: 0.49

Suppose we examine the compound COc1ccc(-c2c(C#N)c(S)n(-c3ccc(S(=O)(=O)Nc4onc(C)c4C)cc3)c(=O)c2C#N)cc1 ; what MIC value has been reported?
0.98

Now consider Cc1noc(NS(=O)(=O)c2ccc(NC(=O)/C(C#N)=C/c3cccnc3)cc2)c1C and answer again.
0.12

* * *

# Test system: Syncephalastrum racemosum
# test.name: Antifungal activity against Syncephalastrum racemosum RCMB 05922 assessed as absence of turbidity after 48 hrs
# Format: functional
# condition.parameters: RCMB 05922, 48 h
# note: boundary value 4 µg/mL maps to f; MIC below it maps to t

A selection of reference data follows.
mol.smiles: COc1ccc(-c2[nH]nc(N)c2C(=O)Nc2ccc(S(=O)(=O)Nc3onc(C)c3C)cc2)cc1
qualitative.label: t
//
mol.smiles: Cc1noc(NS(=O)(=O)c2ccc(N)cc2)c1C
qualitative.label: f
//
mol.smiles: Cc1noc(NS(=O)(=O)c2ccc(NC(=O)/C(C#N)=N/Nc3ccccc3)cc2)c1C
qualitative.label: f
//
mol.smiles: Cc1noc(NS(=O)(=O)c2ccc(NC(=O)/C(C#N)=C/c3ccc(Cl)cc3)cc2)c1C
qualitative.label: t
//
mol.smiles: Cc1cc(C)n(-c2ccc(S(=O)(=O)Nc3onc(C)c3C)cc2)c(=O)c1C#N
qualitative.label: t
//
mol.smiles: Cc1noc(NS(=O)(=O)c2ccc(NC(=O)c3c(Nc4ccccc4)sc(C#N)c3N)cc2)c1C
qualitative.label: f

Report whether reported MIC is lower than 4 µg/mL (strictly) for CCOc1ccc(-n2nc(C(=O)Nc3ccc(S(=O)(=O)Nc4onc(C)c4C)cc3)c(N)c2C#N)cc1
t

Cc1noc(NS(=O)(=O)c2ccc(-n3c(S)c(C#N)c(-c4ccco4)c(C#N)c3=O)cc2)c1C ?
t

Now consider C=CCNc1sc(C(C)=O)c(N)c1C(=O)Nc1ccc(S(=O)(=O)Nc2onc(C)c2C)cc1 .
t

Item: Cc1noc(NS(=O)(=O)c2ccc(NC(=O)c3cn[nH]c3N)cc2)c1C
f

Field entry: Cc1noc(NS(=O)(=O)c2ccc(NC(=O)/C(C#N)=C/c3ccccc3)cc2)c1C
f

Another compound: CNc1sc(C(C)=O)c(N)c1C(=O)Nc1ccc(S(=O)(=O)Nc2onc(C)c2C)cc1
f

Try this compound next: C[C@@H]1[C@H](O)[C@@H](C)/C=C/C=C/C=C/C=C/C=C/C=C/C=C/[C@H](O[C@@H]2O[C@H](C)[C@@H](O)[C@H](N)[C@@H]2O)C[C@@H]2O[C@](O)(C[C@@H](O)C[C@@H](O)[C@H](O)CC[C@@H](O)C[C@@H](O)CC(=O)O[C@H]1C)C[C@H](O)[C@H]2C(=O)O
f

Also Cc1noc(NS(=O)(=O)c2ccc(-n3c(S)c(C#N)c(-c4ccc(Cl)cc4)c(C#N)c3=O)cc2)c1C , if possible.
t

How about Cc1noc(NS(=O)(=O)c2ccc(NC(=O)/C(C#N)=C/N(C)C)cc2)c1C ?
t
